- Tested on: human cytomegalovirus (HCMV)
- MEASUREMENT PROTOCOL: microbe, parasite or virus in culture
- Assay type: cell-based, Towne strain
- TEST SETTINGS: comment on Table 1 data
- Experimental: The routine growth and passage of KB and BSC-1 cells was performed in monolayer cultures using minimal essential medium (MEM) with either Hanks salts [MEM(H)] or Earle salts [MEM(E)] supplemented with 10% calf serum. The sodium bicarbonate concentration was varied to meet the buffering capacity required. […] Virus titers were determined using monolayer cultures of HFF cells for HCMV and monolayer cultures of BSC-1 cells for HSV-1 as described earlier [Prichard, M. N., et al., J. Virol. […]
EXPERIMENTAL ENDPOINT: antiviral activity against HCMV (in words)

NC(=S)c1cn(CCc2ccccc2)c2ncnc(N)c12 [Compound 1446] : excellent activity
N#Cc1c(N)n(CCCc2ccccc2)c2ncnc(N)c12 [Compound 1350] : excellent activity
N#Cc1cn(CCc2ccccc2)c2ncnc(N)c12 [Compound 1368] : excellent activity
